# System Tested: T1, human GLP-1 receptor (human, UniProt P43220 24-463)
# T1 construct: whole, on cells
# Assay Overview: competitive SPA binding, displacement of 125I-GLP-1(7-36)NH2 from BHK membranes with human GLP-1R, high HSA (2.0%)
pIC50: −log10 of the molar value. Numbered stars: 1 amine (or outer) side, 2 acyl side, 3 side chain; on linkers, the order of the positions; unused ones are H or OH. Square brackets hold non-standard residues; d marks the D form. Side chains are listed from the residue outwards. Ends that are not written are not given here. * marks the point of attachment. C18 diacid = O=C(O)CCCCCCCCCCCCCCCCC(=O)*; γGlu = O=C(O)[C@H](CCC(=O)[*:2])N[*:1]; εLys = N[C@@H](CCCCN[*:1])C(=O)[*:2]; AEEA = NCCOCCOCC(=O)O; Aib = CC(C)(N)C(=O)O
// reported pIC50 for each item listed
Attribute Measured: pIC50

1. H[Aib]EGTFTSDVSK([AEEA-AEEA-γGlu-C18 diacid])YLEEQAARK([AEEA-AEEA-γGlu-C18 diacid])FIAWLVRGRK([AEEA-AEEA-γGlu-C18 diacid]) (Full chemical name printed at h-0060)	< 6.00
2. H[Aib]EGTFTSDVSK([AEEA-γGlu-AEEA-C18 diacid])YLEEQAARK([AEEA-γGlu-AEEA-C18 diacid])FIAWLVRGRK([AEEA-γGlu-AEEA-C18 diacid]) (Full chemical name printed at h-0064)	< 6.00
3. H[Aib]EGTFTSDVSSYLEEQAAK([εLys-AEEA-AEEA-γGlu-C18 diacid])EFIK([εLys-AEEA-AEEA-γGlu-C18 diacid])WLVRGRK([εLys-AEEA-AEEA-γGlu-C18 diacid]) (Full chemical name printed at h-0072)	< 6.00
